Listed here: items and their measured GI50.
# Tested on: EKVX
# TEST_PROTOCOL: NCI tumour cell line growth inhibition, 48 h
The source made the active and inactive calls. Rule as the data show it: active = GI50 up to about 1.1 µM and inactive = higher.

// worked examples, GI50 included
CCCCCCCCC[C@@H]1CC(=O)OCC2OC(O[C@H](CCCCCCCCC)CC(=O)OCC3OC(O[C@H](CCCCCCCCC)CC(=O)OCC4OC(O1)C(O)C(O)C4O)C(O)C(O)C3O)C(O)C(O)C2O (stereo partly drawn) | 12 µM (inactive)
CO[C@@H]1C[C@H](OC(N)=O)[C@@H]2C=C[C@@H]3/C=C(C)/C=C/[C@@H](C)[C@H]([C@H](C)[C@H](O)[C@@H](C)NC(C)=O)OC(=O)/C=C/C=C(C)\C=C\[C@]3(C)[C@@H]2C1 | 1.24 µM (inactive)
CC(=O)OCC1OC(n2c(=O)[nH]c(=O)c3sccc32)C(Br)C1OC(C)=O (stereo not drawn) | > 100 µM (inactive)
Nc1c(C(=O)O)nnc2cc(Cl)c(Cl)cc12 | > 100 µM (inactive)
CCOC(=O)C1(C/C=C(/C)Cl)CCCC1=O (stereo not drawn) | > 100 µM (inactive)
CC(=O)Oc1c2c(c3n(c1=O)CCCC3)C(=O)N(c1ccccc1)C2=O | 94 µM (inactive)
COCCCNc1nc(N)c(C#N)c(C#N)c1C#N | > 10 µM (inactive)

Please look at the following compound next.
Q) State the recorded GI50 for this entry: CCOC(=O)C(NC(=O)c1ccccc1)(c1ccc(S(=O)(=O)Nc2onc(C)c2C)cc1)C(F)(F)F (stereo not drawn)
A) > 100 µM (inactive)

* * *

# System: DU-145
# TEST_PROTOCOL: NCI tumour cell line growth inhibition, 48 h
Calls of active or inactive are those of the source. No stated cut-off is given here; in the data, active = GI50 up to about 1.1 µM and inactive = higher.
Listed here: items and their measured GI50.

Q) State the recorded GI50 for this entry: CCCCCCCC/C=C(\Br)C(O)C(Br)Br (stereo not drawn)
A) 38.6 µM (inactive)

Q) State the recorded GI50 for this entry: CCN(CC)CCNC(=O)c1nn(-c2ccc(Cl)cc2)c2c1CCc1cc(OC)ccc1-2
A) 15.3 µM (inactive)

Q) State the recorded GI50 for this entry: O=C(C1OC1c1ccc(F)cc1)C12CC3CC(CC(C3)C1)C2 (stereo not drawn)
A) 34 µM (inactive)

* * *

# Test system: CAKI-1
# TEST_PROTOCOL: NCI tumour cell line growth inhibition, 48 h
Calls of active or inactive are those of the source. No stated cut-off is given here; in the data, active = GI50 up to about 1.1 µM and inactive = higher.
The reply should be one of these categories: active, inactive

Q) Which outcome did this test record for the molecule S=c1[nH]c2c(Cl)c(Cl)c(Cl)c(Cl)c2[nH]1 ?
A) inactive

* * *

# System: SK-MEL-28
# TEST_PROTOCOL: NCI tumour cell line growth inhibition, 48 h
Calls of active or inactive are those of the source. Rule as the data show it: active = GI50 up to about 1.1 µM and inactive = higher.
Listed here: items and their measured GI50.

// worked examples, GI50 included
COc1ccc(/C(Cl)=C(\C=O)c2ccc(F)cc2)cc1OC | 24 µM (inactive)
CC1(C)[N+]([O-])=[N+]([O-])C1(C)O (stereo unspecified) | > 100 µM (inactive)
CC(=O)c1cn(-c2ccc(Cl)cc2)c(=O)c2c(N)n[nH]c12 | > 100 µM (inactive)
N#C/C(=C\c1cccc(Cl)c1Cl)c1ccccc1 | > 100 µM (inactive)

Q) State the recorded GI50 for this entry: Cc1cs/c(=N\C(P(=O)(O)O)P(=O)(O)O)n1C
A) > 100 µM (inactive)

Q) State the recorded GI50 for this entry: CCCCCCCCCCCCCCNCC(OCC)OCC
A) 16.9 µM (inactive)
